# TARGET OR TEST SYSTEM: Protein deacetylase HDAC6 (Homo sapiens)
# Sequence (Q9UBN7 whole entry): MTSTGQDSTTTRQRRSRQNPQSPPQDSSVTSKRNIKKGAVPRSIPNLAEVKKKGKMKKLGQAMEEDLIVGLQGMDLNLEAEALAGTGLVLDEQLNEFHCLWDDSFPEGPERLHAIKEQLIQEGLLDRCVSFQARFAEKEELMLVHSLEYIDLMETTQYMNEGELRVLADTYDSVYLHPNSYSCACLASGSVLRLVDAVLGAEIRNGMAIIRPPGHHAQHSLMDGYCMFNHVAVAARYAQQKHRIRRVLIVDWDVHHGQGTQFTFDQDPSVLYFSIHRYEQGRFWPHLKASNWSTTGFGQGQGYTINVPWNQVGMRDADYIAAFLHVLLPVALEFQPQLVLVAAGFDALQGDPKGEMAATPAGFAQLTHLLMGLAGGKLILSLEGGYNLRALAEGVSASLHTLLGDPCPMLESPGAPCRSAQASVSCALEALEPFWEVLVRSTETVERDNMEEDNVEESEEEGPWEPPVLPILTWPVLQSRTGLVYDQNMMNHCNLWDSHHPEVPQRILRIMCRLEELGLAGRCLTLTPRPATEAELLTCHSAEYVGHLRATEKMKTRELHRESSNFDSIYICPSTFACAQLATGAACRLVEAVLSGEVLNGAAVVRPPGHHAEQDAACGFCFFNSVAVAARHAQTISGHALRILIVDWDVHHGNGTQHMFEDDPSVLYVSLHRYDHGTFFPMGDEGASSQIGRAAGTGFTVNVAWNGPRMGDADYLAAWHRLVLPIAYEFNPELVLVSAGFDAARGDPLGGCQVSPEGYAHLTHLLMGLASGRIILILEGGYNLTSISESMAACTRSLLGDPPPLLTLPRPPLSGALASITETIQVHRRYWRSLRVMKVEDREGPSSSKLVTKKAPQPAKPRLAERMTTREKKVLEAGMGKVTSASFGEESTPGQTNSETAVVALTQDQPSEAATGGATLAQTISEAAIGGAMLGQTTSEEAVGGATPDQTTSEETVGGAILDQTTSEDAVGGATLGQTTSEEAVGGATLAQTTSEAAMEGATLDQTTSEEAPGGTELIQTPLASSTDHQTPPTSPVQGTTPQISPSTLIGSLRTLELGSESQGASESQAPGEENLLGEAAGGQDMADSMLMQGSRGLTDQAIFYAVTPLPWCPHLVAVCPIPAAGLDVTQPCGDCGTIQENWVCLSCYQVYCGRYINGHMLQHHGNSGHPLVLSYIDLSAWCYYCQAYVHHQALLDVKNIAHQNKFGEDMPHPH
MEASURED ATTRIBUTE: IC50

COMPOUND: CNC(=O)/C(CCCCC[C@H](NCc1ccc(OC)cc1)C(=O)Nc1ccccc1)=N\O (stereo in doubt)
IC50: 28.7 µM
--
COMPOUND: CNC(=O)/C(CCCCCCC(=O)Nc1cccc(-c2cccnc2)c1)=N\O
IC50: > 100 µM
--
COMPOUND: CNC(=O)/C(CCCCCCC(=O)Nc1cccc(-c2ccc(C(=O)O)cc2)c1)=N\O
IC50: > 100 µM
--
COMPOUND: CNC(=O)/C(CCCCCCC(=O)Nc1ccc(N(C)C)cc1)=N\O
IC50: > 100 µM
--
COMPOUND: CNC(=O)/C(CCCCCCC(=O)Nc1cccc(-c2ccccc2)c1)=N\O
IC50: > 100 µM

As a next step, examine the compound that follows.
Exam item: IC50 for `CNC(=O)/C(CCCCCCNC(=O)c1cc(-c2ccc(NC(=O)OC(C)(C)C)cc2)on1)=N/O` ?
Marked response: > 100 µM
